System: MS2 coat protein
Experiment: apparent KD of MS2 coat protein; designed switch direction (-1 OFF switch, 1 ON switch): -1; higher = weaker reporter binding
Settings: input ligand: FMN 200 uM
Mark condition met for reported apparent KD of MS2 coat protein of 0.2 µM or greater; mark condition not met for anything smaller.

Use the examples below as a reference point.
- seq string: "GGUCCACAUGAGGAUCACCCAUGUAAUAACAUGCAGCGCAGGAAGGAUAUGCCCGAACAAAGCCAGCAGAAGGUCCAUUAACAU [Eternabot solution 7] (Eterna round: R96, puzzle: Exclusion NG 3)"
  target system: "MS2 coat protein"
  assigned category: "condition not met"
- seq string: "ACUGUGUAAGGAUAUGUGAUACACUGCUAUUUAGGUGAGUCACAGAAGGUACAUGAGGAUCACCCAUGUCCGGG [Eternabot (L2) Solution 32] (Eterna round: R97, puzzle: Exclusion 4)"
  target system: "MS2 coat protein"
  assigned category: "condition met"
- seq string: "UUGAUUGGUGUAGGAUAUGUAUGAGGAUCACCCAUUAAUAAAUUUUAACCACGAGGAUCACCCGUGUAGAAGGACAUUGGUCAA [pwkr exNG2 2xF5 1xFMN.19] (Eterna round: R96, puzzle: Exclusion NG 2)"
  target system: "MS2 coat protein"
  assigned category: "condition not met"

Given the entry AGAGUGUGAGGAUAUACAUGAGGAUCACCCAUGUAAUAACAGGUUACGGGCGGCACCAGUAGAAGGCACUUGUC [Eternabot (L2) Solution 22] (Eterna round: R97, puzzle: Exclusion 3) , answer whether its apparent KD of MS2 coat protein meets or surpasses 0.2 µM.
condition not met

Dear colleague, could you confirm whether ACAUGAGGAUCACCCAUGUGACCACAAUGGCUGAUGUAACAACAGGAUAUGCGUGAAUAUCUAACGCAGAAGGGUUAUGACUGG [Deportation 60 - Jieux - Exclusion NG 3] (Eterna round: R96, puzzle: Exclusion NG 3) has apparent KD of MS2 coat protein at or above 0.2 µM?
condition not met

Recorded values, source the supplement of paper PMC9170038.
